Assay: DRUGMATRIX: Tumor Necrosis Factor (TNF), Non-Selective radioligand binding (ligand: [125I] TNF-alpha)
Type: cell membranes, Membrane
Conditions: u-937; Not Active = under 50% inhibition at 10 µM
MEASUREMENT NAME: Ki

[
  {
    "MOLECULE": "COc1ccc2c(c1)[C@]13CCCC[C@@H]1[C@H](C2)N(C)CC3",
    "MEASUREMENT NAME": "Ki",
    "OBSERVED MEASUREMENT": "Not Active"
  },
  {
    "MOLECULE": "CC(=O)CC(c1ccccc1)c1c(O)c2ccccc2oc1=O (centres undefined)",
    "MEASUREMENT NAME": "Ki",
    "OBSERVED MEASUREMENT": "Not Active"
  },
  {
    "MOLECULE": "Nc1c(CC(=O)O)cccc1C(=O)c1ccc(Br)cc1",
    "MEASUREMENT NAME": "Ki",
    "OBSERVED MEASUREMENT": "Not Active"
  },
  {
    "MOLECULE": "Nc1ccn([C@@H]2CS[C@H](CO)O2)c(=O)n1",
    "MEASUREMENT NAME": "Ki",
    "OBSERVED MEASUREMENT": "Not Active"
  },
  {
    "MOLECULE": "CCc1c2c(nc3ccc(OC(=O)N4CCC(N5CCCCC5)CC4)cc13)-c1cc3c(c(=O)n1C2)COC(=O)[C@]3(O)CC",
    "MEASUREMENT NAME": "Ki",
    "OBSERVED MEASUREMENT": "Not Active"
  },
  {
    "MOLECULE": "C#C[C@]1(OC(C)=O)CC[C@H]2[C@@H]3CCC4=CC(=O)CC[C@@H]4[C@H]3CC[C@@]21C [NORETHINDRONE ACETATE]",
    "MEASUREMENT NAME": "Ki",
    "OBSERVED MEASUREMENT": "Not Active"
  },
  {
    "MOLECULE": "CN(C)c1ccc(C(=C2C=CC(=[N+](C)C)C=C2)c2ccc(N(C)C)cc2)cc1.[Cl-]",
    "MEASUREMENT NAME": "Ki",
    "OBSERVED MEASUREMENT": "Not Active"
  },
  {
    "MOLECULE": "Cc1ncc([N+](=O)[O-])n1CCO",
    "MEASUREMENT NAME": "Ki",
    "OBSERVED MEASUREMENT": "Not Active"
  },
  {
    "MOLECULE": "COC(=O)C1=C(C)NC(C)=C(C(=O)OCC(C)C)C1c1ccccc1[N+](=O)[O-] (centres undefined)",
    "MEASUREMENT NAME": "Ki",
    "OBSERVED MEASUREMENT": "Not Active"
  },
  {
    "MOLECULE": "CCN[C@@H]1C[C@H](N)[C@@H](O[C@H]2OC(CN)=CC[C@H]2N)[C@H](O)[C@H]1O[C@H]1OC[C@](C)(O)[C@H](NC)[C@H]1O",
    "MEASUREMENT NAME": "Ki",
    "OBSERVED MEASUREMENT": "Not Active"
  },
  {
    "MOLECULE": "ClC(Cl)Cl [CHLOROFORM]",
    "MEASUREMENT NAME": "Ki",
    "OBSERVED MEASUREMENT": "Not Active"
  },
  {
    "MOLECULE": "CC(C)Cc1ccc(C(C)C(=O)O)cc1 (centres undefined)",
    "MEASUREMENT NAME": "Ki",
    "OBSERVED MEASUREMENT": "Not Active"
  },
  {
    "MOLECULE": "CC(=O)Nc1ccc(O)cc1",
    "MEASUREMENT NAME": "Ki",
    "OBSERVED MEASUREMENT": "Not Active"
  },
  {
    "MOLECULE": "N=C(Nc1ccccc1)Nc1ccccc1",
    "MEASUREMENT NAME": "Ki",
    "OBSERVED MEASUREMENT": "Not Active"
  },
  {
    "MOLECULE": "CCN1CC(CCN2CCOCC2)C(c2ccccc2)(c2ccccc2)C1=O (centres undefined)",
    "MEASUREMENT NAME": "Ki",
    "OBSERVED MEASUREMENT": "Not Active"
  },
  {
    "MOLECULE": "Cc1cc(C)nc(NS(=O)(=O)c2ccc(N)cc2)n1",
    "MEASUREMENT NAME": "Ki",
    "OBSERVED MEASUREMENT": "Not Active"
  },
  {
    "MOLECULE": "COP(=O)(OC)OC=C(Cl)Cl",
    "MEASUREMENT NAME": "Ki",
    "OBSERVED MEASUREMENT": "Not Active"
  },
  {
    "MOLECULE": "CCCCOc1ccc(OCCCN2CCOCC2)cc1",
    "MEASUREMENT NAME": "Ki",
    "OBSERVED MEASUREMENT": "Not Active"
  },
  {
    "MOLECULE": "Cc1ccc(S(=O)(=O)NC(=O)NN2CC3CCCC3C2)cc1 (centres undefined) [GLICLAZIDE]",
    "MEASUREMENT NAME": "Ki",
    "OBSERVED MEASUREMENT": "Not Active"
  }
]
